Where do these numbers come from? They come from patent US8236819B2.

Test system: ABCA1 mRNA in THP-1 cells
Test: ABCA1 bDNA assay (ABCA1 mRNA induction)
Format: cell-based, human
Details: Homo sapiens, THP-1, THP-1 cells, ABCA1 mRNA induction
ASSAY_READOUT: EC50 (nM)

# COMPOUND, TARGET_SYSTEM, QUALIFIER, NUMERIC_RESULT
data = [
    ("Cc1cc2c(cc1-c1cc(CCC(=O)O)ccc1OCC(F)(F)F)N(C(C)C)C(=O)CC2(C)C", "ABCA1 mRNA in THP-1 cells", "=", 369),
    ("Cc1cc2c(cc1-c1cc([C@@H]3C[C@H]3C(=O)O)ccc1OC(F)(F)F)N(C)C(=O)CC2(C)C (racemic)", "ABCA1 mRNA in THP-1 cells", ">", 1400),
    ("Cc1cc2c(cc1-c1cc(CCC(=O)O)ccc1OC(F)(F)F)N(C(C)C)C(=O)CC2(C)C", "ABCA1 mRNA in THP-1 cells", "=", 1),
    ("CCN1C(=O)CC(C)(C)c2cc(C)c(-c3cc(/C=C(\\C)C(=O)O)ccc3OC(F)(F)F)cc21", "ABCA1 mRNA in THP-1 cells", "=", 100),
    ("Cc1cc2c(cc1-c1cc([C@@H]3C[C@H]3C(=O)O)ccc1OC(F)(F)F)N(C(C)C)C(=O)CC2(C)C (racemic)", "ABCA1 mRNA in THP-1 cells", ">", 1000),
    ("Cc1cc2c(cc1-c1cc(/C=C/C(=O)O)ccc1OC(F)(F)F)N(C(C)C)C(=O)CC2(C)C", "ABCA1 mRNA in THP-1 cells", "=", 10),
]
